Recorded values, source the supplement of paper PMC9170038.

System: K4 kissing-loop RNA reporter;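 also: bound reporter read as fluorescence of individual clusters on recovered sequencing chips by microscopy, with normalized cluster intensities fitted with a binding model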
ASSAY TEXT: apparent KD of K4 kissing-loop reporter; higher = weaker reporter binding
CONDITION SET: Eterna round: R107; input ligand: theophylline 20 uM
METRIC: apparent KD of K4 kissing-loop reporter (nM)
Reply with just the number (in nM).

Consider the sequence CUCGUGGGUUUGAGAGGGCUUGUGGGAAGUGAGGAUAUUUAGGGAGAAAGAAGGCACUAUAGAAUAUAGUGAUGUUAUAUAAGGG [SSFMNA.N] . State its measured apparent KD of K4 kissing-loop reporter.
273

Consider the sequence AAUCAAUACAGAAGGAGCGUGACAAUUACUAUUGAUUCAGGAGCUAGUGAUGUUAGCAUUUCACAGGUAGGUCGCUGUACAUUUA [JR_SSArginiB_Sub013] . State its measured apparent KD of K4 kissing-loop reporter.
213

Consider the sequence `UGUGUUUACCUGACUCAGUGAUGUUGAGAAGGAGCGUGCAAACGCACAGGUAGGUCGCUCAACCUAAAUUCAGGUGAGCACUAAA` . State its measured apparent KD of K4 kissing-loop reporter.
423

Consider the sequence AGACUACUGAUAGGAUAUAACAUCCUAGUCGUAUACCGAAAGGUAUACGAUAUCCUUCUAGUGAUGUUAGAAGGGUCGGUAGUCA [Omei KL FMN B Exc B v10] . State its measured apparent KD of K4 kissing-loop reporter.
88.3

Consider the sequence CGCCGCAAGGCGAGCGCUCCCACUCCGGAAGGAGCGCCCGUAAGGGCAGGUAGGUCGCCGGAGUGAUGUUCCGGUGGAGGGCUCG [#2 Exclusion - Arginine A Attempt #14 (Inspired by Omei)] . State its measured apparent KD of K4 kissing-loop reporter.
33

Consider the sequence GAUGCAUAUUCCUGGAGGAAGAUGGUUAAGAAGGAUAUCAAAGCCGUGAGAAGGUCUAAACCUAAUAGUCGAGUGAUGUUCGACC [theeternabot_sameState_KL_FMN_A_35] . State its measured apparent KD of K4 kissing-loop reporter.
428

Consider the sequence GGUACAGCGGAAGGAUAUCUGUCAUGGACGAUCGUAGCUUGAGCUCCCUGAGUGAUGUUUAGGAUGAGAGAAGGUCCACUCGUAU [theeternabot_exclusion_KL_FMN_B_2] . State its measured apparent KD of K4 kissing-loop reporter.
626

Consider the sequence GGGUUUGCCGGAAGGAGCGCACUAUGGAGUGAUGUUCCAUGACCGCACAGCUUGCGGUCAGUGCAGGUAGGUCGCCGGUAACGUU [Enatbeve] . State its measured apparent KD of K4 kissing-loop reporter.
201

Consider the sequence CCUAUCUCAUACGAUACCAGUGAAUUAAUAUUUAUAAGCAGUGAUGUUGCAUUCCAAGUACACCCUUGGCAGCGUAUGGGAUAGG [Ex Theophylline B K4 20] . State its measured apparent KD of K4 kissing-loop reporter.
159

Consider the sequence UAAUUUAUGUCUUUAAUAUAAUAAUCAGAUACCAGUGAUUAAUGACACCCUUGGCAGCUGUAUAGAGUGAUGUUCUUAUGCUUAA [JR_ExcTheophyA_Sub010] . State its measured apparent KD of K4 kissing-loop reporter.
364

Consider the sequence UUAAUAAUUCAAGGAUAUGUUUUCUAUUUCGAGUGAUGUUCGGAAUUAAUAAAUUUAAAAGAUUAUACAGAAGGUGAUAGAUAGU [Cynwulf-mod#3] . State its measured apparent KD of K4 kissing-loop reporter.
88.1

Consider the sequence AGUCGCAGUGAUGUUGCGAUUCCGUUGAGGGAGGAUAUUGGUAAUACAAGAAGGCCCGGCUACGGGAGAUGUUAGCAAUAGGGCC [Exclusion FMN A GF20] . State its measured apparent KD of K4 kissing-loop reporter.
65
